- target system: Human Norepinephrine Transporter (hNET) (Homo sapiens, UniProt P23975)
- Sequence (P23975 whole entry): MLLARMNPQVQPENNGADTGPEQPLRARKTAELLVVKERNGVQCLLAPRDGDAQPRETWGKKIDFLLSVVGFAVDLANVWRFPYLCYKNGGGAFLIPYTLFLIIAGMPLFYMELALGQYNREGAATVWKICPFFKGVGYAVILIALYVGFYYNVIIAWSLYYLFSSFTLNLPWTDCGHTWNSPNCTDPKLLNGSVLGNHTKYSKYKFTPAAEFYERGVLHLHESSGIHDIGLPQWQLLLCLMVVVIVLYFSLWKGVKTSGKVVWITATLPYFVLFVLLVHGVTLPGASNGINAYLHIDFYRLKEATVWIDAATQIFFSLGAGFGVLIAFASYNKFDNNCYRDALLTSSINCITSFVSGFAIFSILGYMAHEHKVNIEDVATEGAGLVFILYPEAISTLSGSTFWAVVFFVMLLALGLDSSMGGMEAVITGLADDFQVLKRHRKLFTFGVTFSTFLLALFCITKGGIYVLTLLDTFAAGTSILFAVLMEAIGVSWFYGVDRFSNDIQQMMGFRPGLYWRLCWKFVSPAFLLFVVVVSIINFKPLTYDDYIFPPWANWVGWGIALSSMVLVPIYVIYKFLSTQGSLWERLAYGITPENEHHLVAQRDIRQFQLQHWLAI
- experiment notes: Human Norepinephrine Transporter (hNET) Scintillation Proximity Assay (SPA), competition with [3H]-Nisoxetine
- test parameters: pKi NET, membranes of HEK-293 cells expressing recombinant hNET, Ki by Cheng-Prusoff
Exercise: for every item that follows, state its recorded pKi.
Formally, pKi is defined as -log10 of the concentration c, with c in mol/L.

# input Would you kindly share the measured pKi for CNCCC(c1ccccc1)c1ccc2[nH]nc(C)c2c1 (centres unmarked) [Compound 58] ?
# output 6.72

# input Could you share which pKi value was measured for CNCCC(c1ccccc1)c1ccc2[nH]nc(OCC3CC3)c2c1 (centres unmarked) [Compound 81] ?
# output 6.67

# input I have this compound here, CNCCC(c1ccccc1)c1ccc2ccn(C)c2c1 (centres unmarked) [Compound 9] , and I need its recorded pKi.
# output 7.13

# input Consider the compound CNCCC(c1ccccc1)c1ccc2[nH]c(C)cc2c1 (centres unmarked) [Compound 7] and give its measured pKi.
# output 7.04

# input Fill in the blank: the reported pKi of CNCCC(c1ccccc1)c1ccc2[nH]cc(C(N)=O)c2c1 (centres unmarked) [Compound 91] is ____.
# output 6.22

# input Field request: pKi | item: CNCCC(c1ccccc1)c1ccc2[nH]cc(C)c2c1 (centres unmarked) [Compound 15]
# output 7.39

# input So what's the measured pKi for this one? CNCCC(c1ccc2c(c1)OCCN2C)c1ccc2[nH]ccc2c1 (centres unmarked) [Compound 114]
# output 7.06

# input # lookup: pKi of CNCCC(c1ccccc1)c1ccc2[nH]cc(S(C)(=O)=O)c2c1 (centres unmarked) [Compound 16]
# output 6.14

# input What value of pKi has been reported for the following compound? CNCCC(c1ccccc1)c1cc(OC)c2[nH]cc(C#N)c2c1 (centres unmarked) [Compound 96]
# output 7.01

# input Would you kindly share the measured pKi for CNCC[C@H](c1ccccc1)c1ccc2[nH]nc(Cl)c2c1 [Compound 61] ?
# output 6.91

# input Would you kindly share the measured pKi for CNCC[C@H](c1ccccc1)c1cc(C)c2[nH]ncc2c1 [Compound 78] ?
# output 7.71

# input Which measured pKi value corresponds to CNCCC(c1ccccc1)c1ccc2[nH]c(C(N)=O)cc2c1 (centres unmarked) [Compound 24] ?
# output 8.54

# input Field request: pKi | item: CNCC[C@@H](c1ccccc1)c1cc(OC)c2[nH]ncc2c1 [Compound 82]
# output 8.58

# input Quick one: pKi for NCCC(c1ccc2[nH]ccc2c1)c1ccc2[nH]ccc2c1 [Compound 119, 3,3-Bis-(1H-indol-5-yl)-propylamine] ?
# output 7.94

# input Item under review: CNCCC(c1ccccc1)c1ccc2occc2c1 (centres unmarked) [Compound 142] . Reported pKi?
# output 7.98

# input Need pKi of Cn1cc(C#N)c2cc(C(CCN)c3ccccc3)cc(F)c21 (centres unmarked) [Compound 126] , thanks.
# output 6.40

# input Which pKi is listed for CNCCC(c1ccccc1)c1cc(OC)c2[nH]ncc2c1 (centres unmarked) [Compound 75] ?
# output 8.18

# input Query (compound): CNCCC(c1ccc2[nH]ccc2c1)c1cccc2ccccc12 (centres unmarked) [Compound 115] ; field requested: pKi
# output 7.36

# input compound: CNCC[C@H](c1ccccc1)c1cc(F)c2[nH]cc(C#N)c2c1 [Compound 99] ; wanted: its pKi
# output 6.84

# input pKi lookup needed for CNCCC(c1ccccc1)c1ccc2[nH]cc(C(=O)N(C)C)c2c1 (centres unmarked) [Compound 92] , thanks.
# output 6.50

Origin of the recorded values: patent EP2351737A1
